Data origin, for the record: patent US20060194837A1

# study-target: human H3 receptor (Homo sapiens, UniProt Q9Y5N1)
# Sequence (Q9Y5N1 whole entry): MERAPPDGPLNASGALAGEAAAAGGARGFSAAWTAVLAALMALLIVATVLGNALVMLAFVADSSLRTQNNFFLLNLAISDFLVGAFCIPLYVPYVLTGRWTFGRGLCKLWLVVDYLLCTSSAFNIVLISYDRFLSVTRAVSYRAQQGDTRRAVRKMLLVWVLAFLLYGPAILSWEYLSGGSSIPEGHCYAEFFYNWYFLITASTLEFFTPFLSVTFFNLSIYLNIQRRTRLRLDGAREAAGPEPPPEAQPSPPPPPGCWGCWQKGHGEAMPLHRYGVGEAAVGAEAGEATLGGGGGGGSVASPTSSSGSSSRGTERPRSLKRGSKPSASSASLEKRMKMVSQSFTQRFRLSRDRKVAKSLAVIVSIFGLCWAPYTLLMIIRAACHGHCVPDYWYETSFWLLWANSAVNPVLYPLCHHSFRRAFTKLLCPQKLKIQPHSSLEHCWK
Lab note - cut at 8 nM for Ki: yes (1) if strictly below, no (0) if not.

// below: answered molecules
molecule: CN1Cc2cc(OCCCN3CCOCC3)ccc2C(c2ccc([S+](C)[O-])cc2)C1 (single isomer, unassigned) [Example 165A]
cat: yes (1)
--
molecule: COc1ccc(C2CN(C)Cc3cc(OCCCN4CCCC(F)C4)ccc32)cc1 (centres unmarked)
cat: yes (1)
--
molecule: COc1ccc(C2CN(C)Cc3cc(OCCCN4CCN(Cc5cccs5)CC4)ccc32)cc1 (centres unmarked)
cat: no (0)

Prompt: Given the entry COc1cccc(C2CN(C)Cc3cc(OCC4CCNCC4)ccc32)c1 (centres unmarked) , would its reported Ki be below 8 nM?
Response: no (0)

Prompt: Given the entry CN1Cc2cc(OCCCN3CCC(F)CC3)ccc2C(c2ccc(Br)cc2)C1 (centres unmarked) , would its reported Ki be below 8 nM?
Response: no (0)

Prompt: Given the entry CCN1CCC(COc2ccc3c(c2)CN(C)CC3c2cccc(OC)c2)CC1 (centres unmarked) , would its reported Ki be below 8 nM?
Response: yes (1)

Prompt: Given the entry COc1ccc(C2CN(C)Cc3cc(OCC4CCN(CC(F)(F)F)CC4)ccc32)cc1 (centres unmarked) , would its reported Ki be below 8 nM?
Response: no (0)

Prompt: Given the entry COc1cccc(C2CN(C)Cc3cc(OCC4CCN(C(C)C)CC4)ccc32)c1 (centres unmarked) , would its reported Ki be below 8 nM?
Response: yes (1)

Prompt: Given the entry COc1ccc(C2CN(C)Cc3cc(OCC4CCN(C(C)C)CC4)ccc32)cc1 (centres unmarked) , would its reported Ki be below 8 nM?
Response: yes (1)

====

# study-target: UniProtKB P31645
Lab note - cut at 20 nM for Ki: yes if strictly below, no if not.

// below: answered compounds
compound: COc1ccc(C2CN(C)Cc3cc(OCCCN4CCCC(F)(F)C4)ccc32)cc1 (single isomer, unassigned) [Example 29B]
cat: yes
--
compound: COc1ccc(C2CN(C)Cc3cc(OCCCN4CCCC(CO)C4)ccc32)cc1 (stereo not drawn)
cat: yes

Prompt: Given the entry COc1ccc(C2CN(CCF)Cc3cc(OCCCN4CCCCC4)ccc32)cc1 (stereo not drawn) , would its reported Ki be below 20 nM?
Response: no

Prompt: Given the entry CN1Cc2cc(OCCCN3CCCCC3)ccc2C(c2cccnc2)C1 (stereo not drawn) , would its reported Ki be below 20 nM?
Response: no

Prompt: Given the entry C(#Cc1ccc2c(c1)CNCC2c1cccnc1)CCN1CCCCC1 (stereo not drawn) , would its reported Ki be below 20 nM?
Response: no

Prompt: Given the entry COc1ccc(C2CN(C(C)C)Cc3cc(OCCCN4CCCCC4)ccc32)cc1 (stereo not drawn) , would its reported Ki be below 20 nM?
Response: no

Prompt: Given the entry CSc1ccc(C2CN(C)Cc3cc(OCC4CCN(C(C)C)CC4)ccc32)cc1 (stereo not drawn) , would its reported Ki be below 20 nM?
Response: yes

Prompt: Given the entry COc1ccc(C2CN(C)Cc3cc(OCCCN4CCC(F)CC4)ccc32)cc1Cl (stereo not drawn) , would its reported Ki be below 20 nM?
Response: yes

Prompt: Given the entry CN1Cc2cc(OCCCN3CCCCC3)ccc2C(c2ccc(Cl)c(Cl)c2)C1 (stereo not drawn) , would its reported Ki be below 20 nM?
Response: yes

====

# study-target: Rat SERT (Rattus norvegicus)
# Construct: A rat brain without cerebellum (Zivic Laboratories, Inc.—Pittsburgh, Pa.) was homogenized; tissue Zivic Laboratories, Inc; host or cells: rat brain without cerebellum, membranes
# protocol-description: Rat brain SERT binding ([3H]-citalopram displacement)
# test-conditions: rat brain membranes without cerebellum, 0.6 nM [3H]-citalopram, 60 min at 25° C.; read-out: Rat SERT Ki
Lab note - cut at 5 nM for Ki: Met if strictly below, Not met if not.

// below: answered molecules
molecule: CSc1ccc(C2CN(C)Cc3cc(OCC4CN(C5CC5)C4)ccc32)cc1 (centres unmarked)
study-target: Rat SERT (Rattus norvegicus)
cat: Met
--
molecule: COc1cccc(C2CN(C)Cc3cc(OC4CCN(C)CC4)ccc32)c1 (centres unmarked)
study-target: Rat SERT (Rattus norvegicus)
cat: Not met
--
molecule: COc1ccc(C2CN(C)Cc3cc(OCCCN4CCN(c5ccc(C#N)cc5)CC4)ccc32)cc1 (centres unmarked)
study-target: Rat SERT (Rattus norvegicus)
cat: Met

Attention now shifts to the item below.
Prompt: Given the entry COc1ccc(C2CN(C)Cc3cc(OCC4CN(CCF)CCO4)ccc32)cc1 (mixture of isomers) , would its reported Ki be below 5 nM?
Response: Not met

====

# reported pKi; entries follow
# study-target: Rat SERT (Rattus norvegicus, UniProt P31652)
# Construct: A rat brain without cerebellum (Zivic Laboratories, Inc.—Pittsburgh, Pa.) was homogenized; tissue Zivic Laboratories, Inc; host or cells: rat brain without cerebellum, membranes
# Sequence (P31652 whole entry): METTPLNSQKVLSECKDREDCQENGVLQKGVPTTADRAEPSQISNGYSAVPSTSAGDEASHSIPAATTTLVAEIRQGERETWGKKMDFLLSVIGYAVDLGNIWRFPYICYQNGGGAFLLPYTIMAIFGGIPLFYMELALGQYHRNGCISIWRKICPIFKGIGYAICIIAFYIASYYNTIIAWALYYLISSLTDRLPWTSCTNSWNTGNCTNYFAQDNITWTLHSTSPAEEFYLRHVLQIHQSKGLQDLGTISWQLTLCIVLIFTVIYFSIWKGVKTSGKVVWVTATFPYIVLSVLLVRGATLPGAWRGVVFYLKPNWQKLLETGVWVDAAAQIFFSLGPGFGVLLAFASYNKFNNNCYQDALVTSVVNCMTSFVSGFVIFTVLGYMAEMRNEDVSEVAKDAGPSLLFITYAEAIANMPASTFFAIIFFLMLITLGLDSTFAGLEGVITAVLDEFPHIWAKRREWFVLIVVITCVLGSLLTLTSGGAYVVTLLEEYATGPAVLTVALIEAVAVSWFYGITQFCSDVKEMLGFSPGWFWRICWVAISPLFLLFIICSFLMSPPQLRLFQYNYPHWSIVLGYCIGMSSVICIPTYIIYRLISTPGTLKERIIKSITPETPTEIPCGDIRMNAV
# protocol-description: Rat brain SERT binding ([3H]-citalopram displacement)
# test-conditions: rat brain membranes without cerebellum, 0.6 nM [3H]-citalopram, 60 min at 25° C.; read-out: Rat SERT Ki
pKi (log units): -log10 of the concentration in mol/L.

compound: COc1ccc(C2CN(C)Cc3cc(OCCCN(C)C(C)C)ccc32)cc1 (stereo not shown)
study-target: Rat SERT (Rattus norvegicus, UniProt P31652)
pKi: 8.52

Prompt: State its pKi: COc1ccc(C2CN(C)Cc3cc(OCC4CCN(CC(C)(C)O)CC4)ccc32)cc1 (stereo not shown)
Response: 8.40

Prompt: State its pKi: COc1ccc(C2CN(C)Cc3cc(OCCCN(C4CC4)C4CC4)ccc32)cc1 (stereo not shown)
Response: 8.15

Prompt: State its pKi: COc1ccc(C2CN(C)Cc3cc(OC4CCN(C(C)C)CC4)ccc32)c(F)c1 (stereo not shown)
Response: 8.05

====

# study-target: human SERT (Homo sapiens, UniProt P31645)
# Sequence (P31645 whole entry): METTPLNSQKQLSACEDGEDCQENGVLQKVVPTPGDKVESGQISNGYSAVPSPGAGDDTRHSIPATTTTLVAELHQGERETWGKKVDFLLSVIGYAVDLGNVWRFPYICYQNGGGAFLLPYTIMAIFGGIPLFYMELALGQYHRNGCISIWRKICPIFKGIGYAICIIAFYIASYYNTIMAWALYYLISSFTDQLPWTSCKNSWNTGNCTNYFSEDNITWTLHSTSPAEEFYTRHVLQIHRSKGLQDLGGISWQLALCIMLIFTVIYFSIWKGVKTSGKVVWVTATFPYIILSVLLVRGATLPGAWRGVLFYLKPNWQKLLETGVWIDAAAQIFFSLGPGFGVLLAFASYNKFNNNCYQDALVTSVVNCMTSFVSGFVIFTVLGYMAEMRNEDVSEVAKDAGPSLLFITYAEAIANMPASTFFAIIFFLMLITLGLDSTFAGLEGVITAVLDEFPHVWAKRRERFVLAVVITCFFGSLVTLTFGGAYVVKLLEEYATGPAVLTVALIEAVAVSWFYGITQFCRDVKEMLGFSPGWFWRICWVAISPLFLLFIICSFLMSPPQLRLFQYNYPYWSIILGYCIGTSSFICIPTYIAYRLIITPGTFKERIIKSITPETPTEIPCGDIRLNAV
pKi: −log10 of the molar value.
Assign class by pKi: not lower than 8 means Fulfilled; lower than 8 means Not fulfilled.

// below: answered molecules
molecule: CSc1ccc(C2CN(C)Cc3cc(OCCCN4CCC(F)CC4)ccc32)cc1 (single isomer, unassigned) [Example 153]
study-target: human SERT (Homo sapiens, UniProt P31645)
cat: Fulfilled
//
molecule: CN1Cc2cc(OCCCN3CCC(F)CC3)ccc2C(c2ccc(N3CCOCC3)cc2)C1 (centres unmarked)
study-target: human SERT (Homo sapiens, UniProt P31645)
cat: Not fulfilled
//
molecule: COc1ccc(C2CN(C)Cc3cc(OCCCN4CCCC(F)C4)ccc32)cc1 (centres unmarked)
study-target: human SERT (Homo sapiens, UniProt P31645)
cat: Fulfilled

Prompt: Decide: pKi of CN1Cc2cc(OCCCN3CCC(F)CC3)ccc2C(c2ccccc2)C1 (centres unmarked) >= 8?
Response: Not fulfilled

Prompt: Decide: pKi of CSc1ccc(C2CN(C)Cc3cc(OCCCN4CCC(F)CC4)ccc32)cc1 (centres unmarked) [Example 52] >= 8?
Response: Fulfilled

Prompt: Decide: pKi of COc1ccc(C2CN(C)Cc3cc(OCCCN4CCC(F)CC4)ccc32)cc1 (racemic) [Example 1] >= 8?
Response: Fulfilled

Prompt: Decide: pKi of CN1Cc2cc(OCCCN3CCC(F)CC3)ccc2C(c2ccc(OC(F)F)cc2)C1 (centres unmarked) >= 8?
Response: Fulfilled

Prompt: Decide: pKi of COc1ccc(C2CN(C)Cc3cc(OCCCN4CCCC4C)ccc32)cc1 (centres unmarked) >= 8?
Response: Fulfilled

Prompt: Decide: pKi of COc1ccc(C2CN(C)Cc3cc(OCCCN4CCC[C@@H]4CO)ccc32)cc1 (some centres unmarked) >= 8?
Response: Fulfilled

====

# reported Ki; entries follow
# study-target: Rat SERT (Rattus norvegicus, UniProt P31652)
# Construct: A rat brain without cerebellum (Zivic Laboratories, Inc.—Pittsburgh, Pa.) was homogenized; tissue Zivic Laboratories, Inc; host or cells: rat brain without cerebellum, membranes
# protocol-description: Rat brain SERT binding ([3H]-citalopram displacement)
# test-conditions: rat brain membranes without cerebellum, 0.6 nM [3H]-citalopram, 60 min at 25° C.; read-out: Rat SERT Ki
Please give a number only; it is taken to be in µM.

compound: C[C@H]1COCCN1CCCOc1ccc2c(c1)CN(C)CC2c1ccc(C#N)cc1 (some centres unmarked)
Ki (µM): 0.027
--
compound: COc1ccc(C2CN(C)Cc3cc(OC[C@@H]4CN(C(C)C)CCO4)ccc32)cc1 (mixture of isomers)
Ki (µM): 0.016
--
compound: COc1ccc(C2CN(C)Cc3cc(OCCCN4C[C@@H](C)O[C@@H](C)C4)ccc32)cc1 (some centres unmarked)
Ki (µM): 0.008

Prompt: State its Ki: CN1Cc2cc(OCCCN3CCC(F)CC3)ccc2C(c2cccc(Cl)c2)C1 (centres unmarked)
Response: 0.014

Prompt: State its Ki: COc1ccc(C2CN(C)Cc3cc(CCCCN4CCSCC4)ccc32)cc1 (centres unmarked)
Response: 0.006

Prompt: State its Ki: COc1ccc(C2CN(C)Cc3cc(OCCCN4CCN(C(=O)C(C)C)CC4)ccc32)cc1 (centres unmarked)
Response: 0.027

Prompt: State its Ki: COc1ccc(C2CN(C)Cc3cc(OCCCN4CC[C@@H](O)C4)ccc32)cc1 (some centres unmarked)
Response: 0.002

Prompt: State its Ki: COc1ccc(C2CN(C(C)C)Cc3cc(OCCCN4CCCCC4)ccc32)cc1 (centres unmarked)
Response: 0.022
